The measurements presented in this section are drawn from PubChem BioAssay.

# assayed.system: Calmodulin-1 (Homo sapiens)
# test.protocol: small molecules binding Ca-loaded calmodulin-1 – biochemical, small-molecule microarray, Cy5-labelled CALM1, plus calcium, artefact control for SMM control-protein annotation, profiling panel (AID 1112);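 further: score merges spot fluorescence with signal to noise from triplicate slides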
# details: Cy5-CALM1 binding fluorescence, higher = more signal
experimental.readout: composite z-score

- compound: "COc1ccc([Si](C)(C)[C@@H]2[C@@H](CC(=O)N3Cc4ccccc4C[C@H]3CO)O[C@]3(C(=O)N(Cc4cccc(N5CCC5=O)c4)c4ccccc43)[C@H]2C)cc1"
  numeric.readout: 0.0915
- compound: "COCC(=C=CC[C@@H](O)c1ccc(OCCO)cc1)C[C@@H](O)c1ccccn1"
  numeric.readout: -0.125
- compound: "CCCCN1CC=CC23O[C@@H]4/C=C\\CCCOC(=O)C4[C@H]2C(=O)N(CCCO)[C@@H]3C1=O (some centres not stated)"
  numeric.readout: -0.298
- compound: "C#CCOc1ccc(C[C@@H](C(=O)OC)N(CC#C)[C@@H](/C=C/C2CC2)[C@H](O)Cc2ccccc2)cc1"
  numeric.readout: -1.69
- compound: "COC(=O)[C@@]1(Cc2ccccc2)[C@H]2c3cc(C(=O)N(C)C)n(Cc4ccc(OC)c(OC)c4)c3C[C@H]2CN1C(=O)c1ccccc1"
  numeric.readout: 0.873
- compound: "COC(=O)[C@@]1(Cc2ccc(F)cc2)[C@H]2c3cc(C(=O)N(C)C)n(Cc4ccc(C)o4)c3C[C@H]2CN1C(=O)c1ccccc1"
  numeric.readout: -0.969
- compound: "CO[C@H]1O[C@H](CO)[C@@H](OC(=O)Nc2ccc(Oc3ccccc3)cc2)[C@H](OC(=O)Nc2ccc3c(c2)OCO3)[C@@H]1OC(=O)Nc1ccc2c(c1)OCO2"
  numeric.readout: -0.23
- compound: "COCCOC(=O)N1C(=O)[C@@]2(c3cc(C#CC4(O)CCCCCC4)ccc31)[C@H](c1ccccc1OCCO)N1[C@H](c3ccccc3)[C@H](c3ccccc3)OC(=O)[C@H]1[C@@H]2C(=O)N1CCc2cc(OC)c(OC)cc2C1"
  numeric.readout: 0.57
- compound: "CCCCC(=C=CC[C@H](O)c1cccc(OCCO)c1)C[C@H](O)c1ccccn1"
  numeric.readout: -0.784
- compound: "O=C(CS)NCCCCCNC(=O)[C@@H]1C[C@@H]2C(=O)NCC(=O)N2[C@@H]1c1ccc(O)cc1"
  numeric.readout: -0.109
- compound: "COc1ccc([Si](C)(C)[C@@H]2[C@@H](CC(=O)N3CCC[C@H]3CO)O[C@]3(C(=O)N(Cc4cccc(I)c4)c4ccccc43)[C@H]2C)cc1"
  numeric.readout: 0.935
- compound: "CC#CC(=O)Oc1ccc(Br)cc1C=CC(=O)OCC"
  numeric.readout: -0.465
